// data source = patent US10202361B2

# Test system: downy bromegrass (Bromus tectorum)
# Protocol Notes: Test D pre-/postemergence controlled growth environment herbicide test
# Type: in vivo
# Experimental Conditions: Postemergence, 62 g ai/ha, scale 0 to 100
Reported Property: Plant response rating
Answers are plain numbers.

Record excerpt, results attached:
INSERT INTO measurements (smi, reported_property, observed) VALUES
  ('COc1cc(=O)n(-c2ccc(F)cc2)nc1Cc1ccnc(C(F)(F)F)c1', 'Plant response rating', 10),
  ('Cc1cc(=O)n(-c2ccc(F)cc2)nc1Oc1ccnc(C(F)(F)F)c1', 'Plant response rating', 10),
  ('Cc1cc(=O)n(-c2ccc(C(F)(F)F)cc2)nc1Cc1ccnc(C(F)(F)F)c1', 'Plant response rating', 30);

--- query ---
Please report the recorded Plant response rating for `Cc1cc(=O)n(-c2ccc(F)cc2)nc1Cc1ccnc(C(F)(F)F)c1` . 0

----------
# System: blackgrass (Alopecurus myosuroides)
# Protocol Notes: Test C pre-/postemergence greenhouse herbicide test
# Format: in vivo
# Experimental Conditions: Alopecurus myosuroides, pre-emergence; Blackgrass; Preemergence; 31 g ai/ha; read-out: Plant response rating
Kindly state pest or weed control at 31 g/ha for each of the entries shown.
Param answer (str): number followed by unit.

Worked examples, 4 compounds total:
INSERT INTO assay_data (compound, observed) VALUES
  ('Cc1cc(=O)n(-c2ccc(F)cc2)nc1Cc1ccnc(C(F)(F)F)c1 [Compound 1]', '30%'),
  ('COc1cc(=O)n(-c2ccc(C(F)(F)F)cc2)nc1Cc1ccnc(C(F)(F)F)c1 [Compound 16]', '40%'),
  ('COc1cc(=O)n(-c2ccc(F)cc2)nc1Cc1ccnc(C(F)(F)F)c1 [Compound 17]', '50%'),
  ('Cc1cc(=O)n(-c2ccc(C(F)(F)F)cc2)nc1Cc1ccnc(C(F)(F)F)c1 [Compound 2]', '10%');

Items follow; give pest or weed control at 31 g/ha for each.
1. CCOc1cc(=O)n(-c2ccc(F)cc2)nc1C(O)c1ccnc(C(F)(F)F)c1 (stereo not drawn) [Compound 23]
2. CCOc1cc(=O)n(-c2ccc(F)cc2)nc1Cc1ccnc(C(F)(F)F)c1 [Compound 25]

["50%", "40%"]

----------
# Test system: buckwheat, wild (wild buckwheat, Polygonum convolvulus)
# Protocol Notes: Test D pre-/postemergence controlled growth environment herbicide test
# Assay type: in vivo
# Experimental Conditions: Preemergence, 31 g ai/ha, scale 0 to 100
Give Plant response rating for every item shown.

Worked examples follow.
INSERT INTO assay_data (smi, observed) VALUES
  ('Cc1cc(=O)n(-c2ccc(C(F)(F)F)cc2)nc1Cc1ccnc(C(F)(F)F)c1', 0),
  ('COc1cc(=O)n(-c2ccc(F)cc2)nc1Cc1ccnc(C(F)(F)F)c1', 0),
  ('Cc1cc(=O)n(-c2ccc(F)cc2)nc1Oc1ccnc(C(F)(F)F)c1', 15);

--- query ---
Reported Plant response rating for `Cc1cc(=O)n(-c2ccc(F)cc2)nc1Cc1ccnc(C(F)(F)F)c1` : what is it? 0

----------
# Tested on: galium (catchweed bedstraw, Galium aparine)
# Protocol Notes: Test D pre-/postemergence controlled growth environment herbicide test
# Type: in vivo
# Experimental Conditions: Preemergence, 31 g ai/ha, scale 0 to 100
Reported Property: Plant response rating
Answers are plain numbers.

For orientation, consider the following solved cases.
INSERT INTO measurements (smi, observed) VALUES
  ('Cc1cc(=O)n(-c2ccc(C(F)(F)F)cc2)nc1Cc1ccnc(C(F)(F)F)c1', 0),
  ('COc1cc(=O)n(-c2ccc(F)cc2)nc1Cc1ccnc(C(F)(F)F)c1', 5),
  ('Cc1cc(=O)n(-c2ccc(F)cc2)nc1Cc1ccnc(C(F)(F)F)c1', 0);

What does the record list as Plant response rating for `Cc1cc(=O)n(-c2ccc(F)cc2)nc1Oc1ccnc(C(F)(F)F)c1` ? 0
